B1: CPEB3 Ribozyme (parent)
chain: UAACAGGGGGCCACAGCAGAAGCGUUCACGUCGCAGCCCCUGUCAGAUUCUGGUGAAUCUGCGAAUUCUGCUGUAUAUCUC

Variants of: B1
Test: self-cleavage, relative activity (ratio to wild type); higher = more cleavage; in vitro, sequencing
METRIC: self-cleavage

{"VARIANT ID": "U43A C68U", "ASSAY RESULT": 1.15}
{"VARIANT ID": "U25A A57U", "ASSAY RESULT": 0.18}
{"VARIANT ID": "A18G U74A", "ASSAY RESULT": 0.95}
{"VARIANT ID": "U25A U26C", "ASSAY RESULT": 0.28}
{"VARIANT ID": "U54G A75U", "ASSAY RESULT": 0.96}
{"VARIANT ID": "A47U A57G", "ASSAY RESULT": 0.32}
{"VARIANT ID": "U69A U78C", "ASSAY RESULT": 0.75}
{"VARIANT ID": "A28G A35U", "ASSAY RESULT": 0.27}
{"VARIANT ID": "A45U U54G", "ASSAY RESULT": 0.21}
{"VARIANT ID": "C12U A65U", "ASSAY RESULT": 0.42}
{"VARIANT ID": "G6A G24A", "ASSAY RESULT": 0.34}
{"VARIANT ID": "A3G U78C", "ASSAY RESULT": 0.99}
{"VARIANT ID": "U58A A75U", "ASSAY RESULT": 0.29}
{"VARIANT ID": "G8C", "ASSAY RESULT": 0.27}
{"VARIANT ID": "A28U A56G", "ASSAY RESULT": 0.53}
{"VARIANT ID": "A3G A35C", "ASSAY RESULT": 0.9}
{"VARIANT ID": "A64U U76C", "ASSAY RESULT": 0.4}
{"VARIANT ID": "A21G U54A", "ASSAY RESULT": 0.71}
{"VARIANT ID": "G19U A57C", "ASSAY RESULT": 0.19}
{"VARIANT ID": "A15C U58C", "ASSAY RESULT": 0.21}
{"VARIANT ID": "C34G C44A", "ASSAY RESULT": 0.1}
{"VARIANT ID": "C68U U72A", "ASSAY RESULT": 0.35}
{"VARIANT ID": "G6A U76C", "ASSAY RESULT": 0.27}
{"VARIANT ID": "A35C U78C", "ASSAY RESULT": 0.73}
{"VARIANT ID": "A65G U78C", "ASSAY RESULT": 0.42}
{"VARIANT ID": "A2G A45G", "ASSAY RESULT": 0.45}
{"VARIANT ID": "U43A U67A", "ASSAY RESULT": 0.83}
{"VARIANT ID": "G7A G55A", "ASSAY RESULT": 0.15}
{"VARIANT ID": "A3G C34A", "ASSAY RESULT": 0.2}
{"VARIANT ID": "A35U U66G", "ASSAY RESULT": 0.13}
{"VARIANT ID": "A2U U31C", "ASSAY RESULT": 0.81}
{"VARIANT ID": "G9A G30A", "ASSAY RESULT": 0.18}
{"VARIANT ID": "C32U C39A", "ASSAY RESULT": 0.15}
{"VARIANT ID": "G42U U67C", "ASSAY RESULT": 0.08}
{"VARIANT ID": "A2G A47C", "ASSAY RESULT": 0.29}
{"VARIANT ID": "A28U A56U", "ASSAY RESULT": 0.57}
{"VARIANT ID": "A13G G30A", "ASSAY RESULT": 0.44}
{"VARIANT ID": "C38A U78C", "ASSAY RESULT": 0.33}
{"VARIANT ID": "U60C C71A", "ASSAY RESULT": 0.25}
{"VARIANT ID": "A45U C81U", "ASSAY RESULT": 0.46}
{"VARIANT ID": "G36A G55A", "ASSAY RESULT": 0.09}
{"VARIANT ID": "G63A U72A", "ASSAY RESULT": 0.59}
{"VARIANT ID": "A65G A77C", "ASSAY RESULT": 0.45}
{"VARIANT ID": "G42A U80A", "ASSAY RESULT": 0.79}
{"VARIANT ID": "A3G A35U", "ASSAY RESULT": 0.64}
{"VARIANT ID": "C11U A20U", "ASSAY RESULT": 0.28}
{"VARIANT ID": "G24C G73A", "ASSAY RESULT": 0.16}
{"VARIANT ID": "G6A G19A", "ASSAY RESULT": 0.26}
{"VARIANT ID": "C11A C23G", "ASSAY RESULT": 0.13}
{"VARIANT ID": "U26A U31A", "ASSAY RESULT": 0.34}
{"VARIANT ID": "U54C C68U", "ASSAY RESULT": 1.09}
{"VARIANT ID": "U26C U43C", "ASSAY RESULT": 0.77}
{"VARIANT ID": "A13U U26G", "ASSAY RESULT": 0.4}
{"VARIANT ID": "G52A U69A", "ASSAY RESULT": 0.84}
{"VARIANT ID": "G8U U80A", "ASSAY RESULT": 0.2}
{"VARIANT ID": "A64G U72A", "ASSAY RESULT": 0.67}
{"VARIANT ID": "G16A A56U", "ASSAY RESULT": 0.13}
{"VARIANT ID": "A13G U54G", "ASSAY RESULT": 0.76}
{"VARIANT ID": "A2G U48C", "ASSAY RESULT": 0.28}
{"VARIANT ID": "U25A U78A", "ASSAY RESULT": 0.19}
{"VARIANT ID": "G52A G53A", "ASSAY RESULT": 1.13}
{"VARIANT ID": "A57C U60A", "ASSAY RESULT": 0.14}
{"VARIANT ID": "A20G G70A", "ASSAY RESULT": 0.33}
{"VARIANT ID": "A13C U54G", "ASSAY RESULT": 0.71}
{"VARIANT ID": "C4U U60C", "ASSAY RESULT": 0.75}
{"VARIANT ID": "G30U U69A", "ASSAY RESULT": 0.1}
{"VARIANT ID": "G10A C27G", "ASSAY RESULT": 0.16}
{"VARIANT ID": "G24A U80C", "ASSAY RESULT": 0.59}
{"VARIANT ID": "G46C U49A", "ASSAY RESULT": 0.04}
{"VARIANT ID": "A2G A5U", "ASSAY RESULT": 0.8}
{"VARIANT ID": "A18U A21U", "ASSAY RESULT": 0.28}
{"VARIANT ID": "U1C A15G", "ASSAY RESULT": 0.6}
{"VARIANT ID": "G22C U72C", "ASSAY RESULT": 0.2}
{"VARIANT ID": "U26G", "ASSAY RESULT": 0.31}
{"VARIANT ID": "A18G G46A", "ASSAY RESULT": 0.35}
{"VARIANT ID": "A21U U66A", "ASSAY RESULT": 1.12}
{"VARIANT ID": "A13G C79U", "ASSAY RESULT": 1.14}
{"VARIANT ID": "C32A C68U", "ASSAY RESULT": 0.22}
{"VARIANT ID": "U41A U74A", "ASSAY RESULT": 0.29}
{"VARIANT ID": "U69G U72C", "ASSAY RESULT": 0.44}
{"VARIANT ID": "C38G U67C", "ASSAY RESULT": 0.11}
{"VARIANT ID": "A15G A18C", "ASSAY RESULT": 0.37}
{"VARIANT ID": "U43A A45C", "ASSAY RESULT": 0.39}
{"VARIANT ID": "U51C U67A", "ASSAY RESULT": 0.56}
{"VARIANT ID": "A13U C39G", "ASSAY RESULT": 0.51}
{"VARIANT ID": "C32G U67C", "ASSAY RESULT": 0.09}
{"VARIANT ID": "C17U G73A", "ASSAY RESULT": 1.09}
{"VARIANT ID": "C23A C44U", "ASSAY RESULT": 0.08}
{"VARIANT ID": "U67G U69C", "ASSAY RESULT": 0.5}
{"VARIANT ID": "A13G A28C", "ASSAY RESULT": 0.43}
{"VARIANT ID": "A15G C79U", "ASSAY RESULT": 1.04}
